target: Calmodulin-1 (Homo sapiens); test: CALM1 binders on microarrays, EGTA buffer, profiling panel, biochemical, small-molecule microarray, Cy5-labelled CALM1 (AID 1111); settings: Cy5-CALM1 binding fluorescence, higher = more signal;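 note: labelled calmodulin applied in Tris saline Tween buffer holding calcium plus EGTA and DTT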
assay metric: composite z-score
Answers are plain numbers.

[
  {
    "compound": "C=C(/C(=C/C[C@H](OC(C)=O)c1ccccc1OCCO)c1cc(C(=O)OC)ccc1OC)C(C)C",
    "composite z-score": -0.227
  }
]

The following compounds each have a reported value; give each one's composite z-score.
1. C[C@@H]1NC(=O)[C@@]23C(=O)N[C@@H](Cc4ccccc4)C2[C@H](C)[C@@]2(C)O[C@H]2C3/C=C/C/C=C\CNC(=O)[C@@H]2CCCN2C1=O (some centres undefined)
2. COc1ccc(C(O)C2C=CC3C(=O)N(c4ccccc4)C(=O)C3N2Nc2ccc([N+](=O)[O-])cc2)cc1 (centres undefined)
3. C=CCC(OC(C)=O)[C@@H]1[C@@H](N(Cc2cc3ccccc3o2)C(=O)c2ccc(C)cc2)c2cc(OCCCO)ccc2N1C(=O)Cc1ccc(OC)cc1 (some centres undefined)

Response:
-0.535
1.45
-0.254

###

test: RPMI8226 myeloma cell viability, profiling panel, resazurin fluorescence, basal, 24 h, PK04 Diversity Set (AID 1180); conditions: higher = more signal;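 note: RPMI8826 multiple myeloma cell line at 5000 cells per well; test concentration not given here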
For each of the compounds below, state its z-score.
Answers are plain numbers.

The cases that follow already have their z-score on record.
[
  {
    "compound": "COC(=O)[C@@]1(Cc2ccccc2)[C@H]2c3cc(C(=O)N(C)C)n(CCc4ccc(O)c(OC)c4)c3C[C@H]2CN1C(=O)c1ccccc1",
    "z-score": 0.0379
  },
  {
    "compound": "CN(C)C(=O)[C@@]1(Cc2ccccc2CN=[N+]=[N-])N=C(c2ccc(OCCCO)cc2)O[C@H]1c1ccccc1CN=[N+]=[N-]",
    "z-score": -3.29
  },
  {
    "compound": "CCCCC=C[C@@H](NC(=O)c1ccc(-c2ccccc2)cc1)c1ccccc1",
    "z-score": -1.75
  },
  {
    "compound": "CCCCC(O)C1C=CC2C(=O)N(c3ccccc3)C(=O)C2N1Nc1ccc(C(C)C)cc1 (stereo not given)",
    "z-score": -0.471
  }
]

The following compounds each have a reported value; give each one's z-score.
1. CC1CC/C=C\[C@H]2OC34C=CCN(C(C)C)C(=O)[C@H]3N(CCCCCCO)C(=O)[C@@H]4C2C(=O)O1 (stereo not given in full)
2. Cc1ccc(S[C@]2(C(=O)O)CC(=O)N(Cc3ccccc3Cl)[C@@H]2c2ccc(CO)cc2I)cc1
3. O=C1c2ccccc2[C@](Cc2ccccc2I)(C(=O)NCC(F)(F)F)[C@H](c2ccc(CO)cc2)N1C1CCCCC1
4. C#CCN([C@@H](Cc1ccc(O)cc1)C(=O)OC)[C@@H](/C=C/C1CC1)[C@H](O)Cc1ccccc1
5. O=C(NCc1ccccc1)[C@@H]1c2ccccc2C(=O)N(Cc2ccccc2C(F)(F)F)[C@H]1c1ccc(CO)cc1
6. Cc1ccc(S[C@]2(C(=O)NCC(F)(F)F)CC(=O)N(C3CCCCC3)[C@@H]2c2ccc(CO)cc2I)cc1
7. COc1ccc([Si](C)(C)[C@H]2[C@H](CCO)O[C@@]3(C(=O)N(Cc4cccc(N5C(=O)COc6ccccc65)c4)c4ccccc43)[C@@H]2C)cc1
8. CCOC(=O)C[C@H]1[C@H](OC(=O)c2ccc(C(=O)c3ccccc3)cc2)[C@@H](NC(=O)Cc2ccc(OC)cc2)c2cc(OCCCO)ccc2N1C(=O)c1ccccc1

Response:
1: 2.06; 2: -2.19; 3: -0.581; 4: -0.61; 5: -0.137; 6: -0.128; 7: -4.91; 8: -0.268

meta.source: PubChem BioAssay
